protocol text: Toxicity in Balb/c mouse assessed as survival rate at 200 mg/kg, ip measured after 15 days
Type: organism-based
stated conditions: in vivo, time 15 day
assay endpoint: survival at 360 h (%)
One number for each entry, in %.

Incoming: Please look up its survival at 360 h: COCC/C(=N\S(=O)(=O)Cc1ccc(Cl)cc1)Nc1ccc(Oc2ccnc3cc(OCCCN4CCOCC4)c(OC)cc23)c(F)c1
Outgoing: 100

----------
experimental target: Vascular endothelial growth factor receptor 2 (Homo sapiens)
Sequence (P35968 whole entry): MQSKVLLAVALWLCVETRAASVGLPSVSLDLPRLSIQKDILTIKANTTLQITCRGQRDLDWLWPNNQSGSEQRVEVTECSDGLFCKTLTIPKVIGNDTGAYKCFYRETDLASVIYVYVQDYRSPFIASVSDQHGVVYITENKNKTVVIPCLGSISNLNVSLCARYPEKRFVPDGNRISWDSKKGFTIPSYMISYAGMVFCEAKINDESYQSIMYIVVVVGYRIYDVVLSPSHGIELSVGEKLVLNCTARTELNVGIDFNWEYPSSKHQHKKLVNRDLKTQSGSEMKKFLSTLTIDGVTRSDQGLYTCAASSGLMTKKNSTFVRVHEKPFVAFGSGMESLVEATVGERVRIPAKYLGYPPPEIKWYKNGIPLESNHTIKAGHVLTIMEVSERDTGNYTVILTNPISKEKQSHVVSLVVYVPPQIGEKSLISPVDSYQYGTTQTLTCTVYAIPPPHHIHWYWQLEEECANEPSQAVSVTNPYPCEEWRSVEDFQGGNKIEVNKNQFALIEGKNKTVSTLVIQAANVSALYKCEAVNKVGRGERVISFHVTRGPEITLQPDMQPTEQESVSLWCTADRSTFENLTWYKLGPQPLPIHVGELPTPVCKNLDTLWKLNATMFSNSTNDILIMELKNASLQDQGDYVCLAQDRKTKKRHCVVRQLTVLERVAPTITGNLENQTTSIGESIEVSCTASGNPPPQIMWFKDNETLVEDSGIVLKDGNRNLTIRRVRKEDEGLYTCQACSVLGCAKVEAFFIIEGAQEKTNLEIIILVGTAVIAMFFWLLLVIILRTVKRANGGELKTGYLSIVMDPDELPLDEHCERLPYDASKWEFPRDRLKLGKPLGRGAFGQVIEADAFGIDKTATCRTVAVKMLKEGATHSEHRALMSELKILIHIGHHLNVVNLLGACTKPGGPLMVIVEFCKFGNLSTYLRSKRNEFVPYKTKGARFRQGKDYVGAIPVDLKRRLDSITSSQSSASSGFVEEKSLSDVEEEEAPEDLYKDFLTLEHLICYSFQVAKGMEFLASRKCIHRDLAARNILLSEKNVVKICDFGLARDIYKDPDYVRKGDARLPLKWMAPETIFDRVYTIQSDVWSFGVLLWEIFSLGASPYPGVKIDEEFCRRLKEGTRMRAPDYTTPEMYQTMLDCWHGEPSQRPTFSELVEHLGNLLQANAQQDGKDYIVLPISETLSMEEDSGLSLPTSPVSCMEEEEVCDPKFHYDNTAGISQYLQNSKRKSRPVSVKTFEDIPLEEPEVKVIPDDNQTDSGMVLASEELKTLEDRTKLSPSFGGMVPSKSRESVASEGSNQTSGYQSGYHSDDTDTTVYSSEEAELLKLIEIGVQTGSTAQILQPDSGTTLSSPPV
assay endpoint: IC50 (nM)
Give bare numbers, in nM.

Incoming: Item: COCC/C(=N\S(=O)(=O)Cc1ccc(Cl)cc1)Nc1ccc(Oc2ccnc3cc(OCCCN4CCOCC4)c(OC)cc23)c(F)c1 Test system: Vascular endothelial growth factor receptor 2 (Homo sapiens) Read-out: IC50 Value: ?
Outgoing: 673
